Recorded values, source patent US6730792B2.

# testTarget: human β3 adrenergic receptor (Homo sapiens, UniProt P13945)
# Construct: expressed in transfected cells; host or cells: DXB-11 Chinese hamster ovary (CHO) cell line, stably transfected (phd expression vector)
# Sequence (P13945 whole entry): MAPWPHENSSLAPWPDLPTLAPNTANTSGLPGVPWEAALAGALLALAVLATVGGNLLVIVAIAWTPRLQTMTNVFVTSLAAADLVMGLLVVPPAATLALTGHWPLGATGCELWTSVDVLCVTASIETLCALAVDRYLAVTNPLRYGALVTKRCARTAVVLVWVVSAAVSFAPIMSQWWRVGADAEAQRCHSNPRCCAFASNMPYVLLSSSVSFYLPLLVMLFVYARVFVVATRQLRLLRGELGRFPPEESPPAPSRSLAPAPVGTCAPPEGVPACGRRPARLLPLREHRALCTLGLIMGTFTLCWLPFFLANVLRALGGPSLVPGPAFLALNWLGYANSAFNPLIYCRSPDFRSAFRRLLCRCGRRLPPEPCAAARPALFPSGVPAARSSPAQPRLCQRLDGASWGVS
# protocolDetails: whole cell receptor coupled c-AMP assay, human β3 receptor in CHO cells (EC50, Emax relative to isoproterenol)
# Type: cell-based
# conditionSummary: % intrinsic activity relative to isoproterenol maximal response; average of at least 3 runs; c-AMP in transfected CHO cells
Answer label 0 if Emax (%) ± SEM is under 60%, and label 1 if it is 60% or more.

stdin: Entry CC(C)(Cc1ccc(Oc2ncccc2C#N)cc1)NC[C@H](O)COc1ccccc1-c1ccncc1 : is its Emax (%) ± SEM no less than 60%?
stdout: label 0

stdin: Entry CC(C)(Cc1ccc(Oc2ccc(C#N)cn2)cc1)NC[C@H](O)COc1ccccc1-c1cccnc1 : is its Emax (%) ± SEM no less than 60%?
stdout: label 0

stdin: Entry CC(C)(Cc1ccc(Oc2ccc(C(N)=O)cn2)cc1)NC[C@H](O)COc1ccccc1-c1cc2ccccc2s1 : is its Emax (%) ± SEM no less than 60%?
stdout: label 0

stdin: Entry CC(C)(Cc1ccc(Oc2ncccc2C#N)cc1)NC[C@H](O)COc1c(F)cccc1-c1ccsc1.Cl : is its Emax (%) ± SEM no less than 60%?
stdout: label 0

stdin: Entry CC(C)(Cc1ccc(Oc2ncccc2C(N)=O)cc1)NC[C@H](O)COc1ccccc1-c1ccco1.Cl : is its Emax (%) ± SEM no less than 60%?
stdout: label 1

stdin: Entry CC(C)(Cc1ccc(Oc2ccc(C(N)=O)cn2)cc1)NC[C@H](O)COc1ccccc1-c1cccnc1 : is its Emax (%) ± SEM no less than 60%?
stdout: label 0
